Biological target: 5HT2 receptors (Rattus norvegicus)
Construct: their external jugular veins and thoracic aortas dissected free of connective tissue; from tissue; host or cells: isolated external jugular vein of male Wistar rats
Sequence (P14842 whole entry): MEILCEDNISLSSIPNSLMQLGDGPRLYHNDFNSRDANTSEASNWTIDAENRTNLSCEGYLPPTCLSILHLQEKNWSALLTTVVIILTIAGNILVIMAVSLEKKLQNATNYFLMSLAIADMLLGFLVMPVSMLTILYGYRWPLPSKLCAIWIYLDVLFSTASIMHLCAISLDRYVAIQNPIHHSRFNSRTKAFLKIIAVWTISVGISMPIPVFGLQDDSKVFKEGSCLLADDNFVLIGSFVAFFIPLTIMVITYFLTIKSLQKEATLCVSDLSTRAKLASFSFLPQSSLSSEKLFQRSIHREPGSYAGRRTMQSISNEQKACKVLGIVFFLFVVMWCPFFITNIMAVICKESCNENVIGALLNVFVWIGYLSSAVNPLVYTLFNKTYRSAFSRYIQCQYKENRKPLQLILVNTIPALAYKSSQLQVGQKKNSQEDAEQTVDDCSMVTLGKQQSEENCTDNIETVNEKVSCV
Experiment: Apparent dissociation constants for 5HT2 receptors determined in the rat jugular vein (antagonism of contraction to serotonin)
Type: cell-based, rat (male Wistar)
Details: antagonist incubated one hour, agonist serotonin, 37° C., read-out: -log KB (apparent dissociation constant, negative logarithm) (converted)
Counter-ions that a name gives are not always drawn.
Value type: log10(Kb) (log10 of the value in nM)
Form field - Quantity: Kb; Unit: nM; Scale: log10

CC(C)n1cc2c3c(cccc31)[C@H]1C[C@@H](C(=O)OC3CCC(=O)CC3)CN(C)[C@@H]1C2 [CH3,4-oxocyclohexyl, maleate] ... -1.01
CC(C)n1cc2c3c(cccc31)[C@H]1C[C@@H](C(=O)OC3CCCCC3)CN(C)[C@@H]1C2 [CH3, cyclohexyl, maleate] ... 0.33
CCN1C[C@H](C(=O)OC2CCCCC2)C[C@@H]2c3cccc4c3c(cn4C(C)C)C[C@H]21 [C2 H5, cyclohexyl, HCl] ... 1.19
CCCN1C[C@H](C(=O)OC2CCCCC2)C[C@@H]2c3cccc4c3c(cn4C(C)C)C[C@H]21 [n-C3 H7, cyclohexyl, HCl] ... 1.93

Give me measured log10(Kb), please, for this molecule: CCCCN1C[C@H](C(=O)OC2CCCCC2)C[C@@H]2c3cccc4c3c(cn4C(C)C)C[C@H]21 [n-C4 H9, cyclohexyl, HCl]
1.60
